Source listed as PubChem BioAssay.

Assay: caspase-8 TRAIL sensitization, hit retest, confirmation, cell-based, NB7+caspase-8, with/without TRAIL, luminescence panel (AID 651596)
Details: NB7 neuroblastoma + caspase-8, without TRAIL, luminescence viability, without TRAIL, mean of runs, at 10 µM
Measured Property: activity (%)
One number for each entry, in %.

COc1cc(C(=O)Nc2nc3ccccc3[nH]2)ccc1OC(F)F :: 69.4
CS/C(Nc1cc(Cl)ccc1Cl)=C(/C#N)C(=O)c1ccco1 :: 65.6
c1c2c(cc3sc(N4CCOCC4)nc13)OCCO2 :: 75

For every listed record, write down its activity.
1. CCN(c1ccccc1)S(=O)(=O)c1ccc(OC)c(NC(=O)c2cc(F)c(F)c(F)c2F)c1
2. CC(=O)n1cc(N(C(=O)CCl)c2ccc(C)cc2)c2ccccc21
3. Nc1nc(CCl)nc(N(c2ccccc2)c2ccccc2)n1
4. CCOc1ccc(N2C(N)=NC(N)=NC2(C)C)cc1
5. COc1ccccc1/C=C/C=N/n1c(-c2cc(-c3ccccc3)n[nH]2)n[nH]c1=S
6. COC(=O)c1ccc(CCc2cc(O)c(Br)cc2O)cc1

Marked response:
1: 87.5; 2: 99.7; 3: 98.7; 4: 82.9; 5: 39.3; 6: 19.7

Could I get activity for every one of these entries?
1. CC(C)(C)C(=O)Nc1cccc(-c2nc3ccccc3c(=O)o2)c1
2. OCC1OC(n2ccc3c2ncn2ncnc32)C(O)C1O (stereo unspecified)

Marked response:
61.9
95.3

----------
Assay: HIF-2a reporter inhibitor retest, confirmation, luminescence, 786-0 RCC cells (AID 651580)
Conditions: HIF-2a luciferase reporter luminescence, overnight, at 18.8 µM, stronger effect = higher value
Some of the results follow.
Classify as follows. Reported inhibition greater than or equal to 80%: TRUE. Reported inhibition below: FALSE.

Worked cases, answers included:
Cc1c(CCC(=O)O)c(=O)oc2c(C)c(OCc3ccccc3Cl)ccc12 :: FALSE
O=C(CN1CCN(C2CCS(=O)(=O)C2)CC1)N1N=C(c2ccc(Cl)cc2)CC1c1ccco1 (stereo not given) :: FALSE
Cc1cccc(CS(=O)(=O)c2ncc(Cl)c(C(=O)Nc3ccc(F)cc3)n2)c1 :: TRUE
CN(c1ccc2nc3ccccc3c(=O)n2n1)C1CCCCC1 :: TRUE
CCOC(=O)C(=Cc1ccccc1OC)C(=O)OCC :: FALSE

Exam item: Determine whether measured inhibition meets or exceeds 80% for CCN(CC)CCCC(C)n1c2nc(=O)[nH]c(=O)c-2nc2cc(Cl)ccc21 (stereo not given)
Marked response: TRUE

Exam item: Now consider CC1CCCCC1NC(=O)/C(C#N)=C/C=C/c1ccccc1[N+](=O)[O-] (stereo not given) .
Marked response: FALSE

Exam item: Same read-out for Cc1cc(-c2n[nH]c(=S)n2/N=C/C(Br)=C/c2ccccc2)n[nH]1 ?
Marked response: FALSE

Exam item: Try this compound too: Cc1cccc(NC(=O)c2nc(S(=O)(=O)Cc3ccccc3)ncc2Cl)c1
Marked response: TRUE

----------
Assay: inhibitors of PAF-induced NFkB signaling in CF airway cells, dose response, cell-based, uHTS hits, panel, cytotoxicity readout (AID 624344)
Details: CF bronchial epithelial cells, PAF-induced NFkB reporter inhibition, with PAF, run 2; at 79 µM (top of the series) unless noted
Measured Property: inhibition (%)
Give bare numbers, in %.

Below: 5 compounds and their reported inhibition.
Cc1ccc(NC(=O)/C=C/c2ccco2)nc1 :: 99.8
Cc1c(C(=O)OC2CCCC2)[nH]c2c1C(=O)CC(c1ccco1)C2 (configuration not stated) :: 115
Cc1ccc(CSc2nccc(-c3c(C)nc4ccccn34)n2)cc1 :: 102
N#CC(C#N)c1ccnc2ccccc12 :: 102
Cc1ccc(CCC(=O)Nc2ncc(Cc3cc(Cl)ccc3Cl)s2)o1 :: 101

Could I get inhibition for every one of these entries?
1. CC1CCCCN1c1ncnc(N)c1[N+](=O)[O-] (configuration not stated)
2. Cc1cccc(NC(=O)c2nc[nH]c2C(=O)NCCCNC(=O)c2[nH]cnc2C(=O)Nc2cccc(C)c2)c1
3. C=CCSc1nsc(NC(=O)Nc2cccc(C(C)=O)c2)n1
4. COc1ccc2cc3c(N)nn(C(=O)Cc4ccccc4OC)c3nc2c1
5. CCc1cc(SC#N)cc(C)c1NC(=O)CCl

Marked response:
103
75.5
101
100
99.9

List the reported inhibition of each compound below.
1. CCN(CC)CCN(C(=O)CCS(=O)(=O)c1ccccc1)c1nc2c(C)cc(C)cc2s1
2. CCCCCCc1cc2cc(S(=O)(=O)c3ccc(F)cc3)c(=O)oc2cc1O

Marked response:
115
87.3

Hello, I would appreciate it if you could give inhibition for each entry below.
1. CC(=O)OC1CCC2(C)C(CCC3C4CC=C(C(C)=O)C4(C)OC(=O)CC32)C1 (configuration not stated)
2. CCN1CCN(Cc2ccc(NC(=O)c3ccc(C)c(NC(=O)c4ccc5n[nH]nc5c4)c3)cc2C(F)(F)F)CC1
3. Nc1ncc(-c2ccccc2)c(-c2ccc(O)cc2O)n1
4. Cc1ccc(S(=O)(=O)n2cc(-c3ccccc3)c3ccccc32)cc1
5. COc1cc(NC(=O)c2csc(-c3ccncc3)n2)cc(C(=O)Nc2cccc(C(F)(F)F)c2)c1
6. O=C1/C(=C/c2cccnc2)CCc2c1[nH]c1ccccc21
7. Oc1ccc(Nc2ncnc3scc(-c4ccccc4)c23)cc1
8. CS(=O)(=O)c1ccc2nc(NC(=O)CCS(=O)(=O)c3ccccc3)sc2c1

Marked response:
104
111
112
108
105
109
41
97.7

Exam item: What measured inhibition goes with C[C@H]1Cn2cnc(C(=O)Nc3cccc(Cl)c3)c2C(=O)N1 ?
Marked response: 104

----------
I'd be grateful if you could share measured activity for these entries.
Molecular target: Tumor necrosis factor receptor superfamily member 10B (Homo sapiens) (UniProt O14763)
Sequence (O14763 whole entry, looked up): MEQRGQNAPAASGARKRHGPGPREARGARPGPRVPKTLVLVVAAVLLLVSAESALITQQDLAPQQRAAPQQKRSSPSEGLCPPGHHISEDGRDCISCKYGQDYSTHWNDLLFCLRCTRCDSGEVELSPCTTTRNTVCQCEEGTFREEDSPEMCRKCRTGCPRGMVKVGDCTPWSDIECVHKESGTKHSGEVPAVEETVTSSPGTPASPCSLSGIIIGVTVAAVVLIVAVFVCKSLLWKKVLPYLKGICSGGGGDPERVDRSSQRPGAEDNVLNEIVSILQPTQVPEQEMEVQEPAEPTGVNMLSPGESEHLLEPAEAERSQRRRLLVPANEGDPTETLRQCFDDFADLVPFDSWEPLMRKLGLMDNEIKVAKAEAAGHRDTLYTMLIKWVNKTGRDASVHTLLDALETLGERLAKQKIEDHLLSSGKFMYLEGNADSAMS
Assay: caspase-8 TRAIL sensitization, hit retest, confirmation, cell-based, NB7+caspase-8, with/without TRAIL, luminescence panel (AID 651596)
Conditions: NB7 neuroblastoma + caspase-8, TRAIL sensitization, luminescence viability, with TRAIL, mean of runs, at 10 µM, stronger effect = higher value
Answers are plain numbers, in %.

Consider the worked cases shown below.
Clc1ccccc1Nc1nnc(-c2ccncc2)s1 :: 61.3
O=C(O)c1ccc(N/N=C/c2cn(-c3ccccc3)nc2-c2cccs2)cc1 :: 77.9

Each compound below has a reported value. Please supply its activity.
1. COCC(C)n1c(C)cc(C(=O)COC(=O)c2n[nH]c3ccccc23)c1C (stereo unspecified)
2. CN(C)c1ccc(Sc2ccc3nc(N)nc(N)c3c2)cc1

Marked response:
[58.5, 62.9]

Record activity per entry; entries follow.
1. Cc1cccc(NC(=O)c2ccc3c(c2)OCCO3)c1
2. CCCCCCc1cc2cc(C(=O)Nc3ccccc3)c(=O)oc2cc1O

Marked response:
1. 85
2. 72.8

----------
Biological target: PEG-3 (UniProt Q6IN02)
Sequence (Q6IN02 whole entry, looked up): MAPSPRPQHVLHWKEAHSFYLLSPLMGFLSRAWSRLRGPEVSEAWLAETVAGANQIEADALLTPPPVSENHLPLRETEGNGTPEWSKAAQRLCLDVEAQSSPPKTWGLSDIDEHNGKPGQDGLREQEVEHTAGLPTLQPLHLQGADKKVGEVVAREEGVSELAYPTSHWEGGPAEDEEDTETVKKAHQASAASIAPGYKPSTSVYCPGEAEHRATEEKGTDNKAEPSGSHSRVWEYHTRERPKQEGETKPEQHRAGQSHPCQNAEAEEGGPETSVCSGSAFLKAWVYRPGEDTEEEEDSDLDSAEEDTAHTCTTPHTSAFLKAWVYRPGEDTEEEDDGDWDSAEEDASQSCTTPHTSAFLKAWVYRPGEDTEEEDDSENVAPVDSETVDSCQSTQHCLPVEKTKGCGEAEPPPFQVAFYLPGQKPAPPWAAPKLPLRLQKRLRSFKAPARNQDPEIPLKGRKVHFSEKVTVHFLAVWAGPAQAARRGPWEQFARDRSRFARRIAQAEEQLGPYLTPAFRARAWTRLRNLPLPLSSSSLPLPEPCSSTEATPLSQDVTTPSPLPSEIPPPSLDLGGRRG
Assay: Peg3 promoter luciferase inhibitors, potency, dose response, cell-based, HeLa, CREF/GAPDH counter-screen panel (AID 624167)
Conditions: CREF/GAPDH counter-screens; HeLa PEG-Prom luciferase reporter, overnight, run 2, dose range 1, at 100 µM (top of the series) unless noted
Please go through the items and note down their inhibition.
Numbers only, in %.

Working through the 7 compounds below one at a time, give inhibition for each.
1. COC(CNC(=O)c1ccc2c3c(onc13)-c1ccccc1C2=O)OC
2. CN(C)CCCNc1ncnc2oc(-c3ccccc3)c(-c3ccccc3)c12
3. COc1ccc(Nc2ncnc3ccc(Br)cc23)c(OC)c1
4. N=c1n(CC(=O)c2ccc([N+](=O)[O-])cc2)c2ccccc2n1Cc1ccc(Cl)cc1
5. O=S(=O)(Nc1cccc2cccnc12)c1ccccc1
6. CCOc1ccc(C(=O)O/N=C(\N)c2ccccn2)cc1
7. CN(C)CCNc1ccc(CO)c2oc3ccc(O)cc3c(=O)c12

Marked response:
[102, 101, 91.8, 101, 97.7, 98.8, 101]

----------
Target: Carboxy-terminal domain RNA polymerase II polypeptide A small phosphatase 1 (Homo sapiens)
Assay: Scp-1 binding by thermal shift, confirmation, orthogonal assay for Scp-1 inhibitor project, biophysical, differential scanning fluorimetry (AID 540329);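 further: 0% = Tm of DMSO wells and 100% = Tm with sodium orthovanadate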
Conditions: Recombinant SCP1, Sypro Orange thermal shift Tm; at 40 µM
The other results are listed elsewhere or left out. Activity calls are given as the source filed them.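 How the source made its calls: active means substances whose mean melting-temperature shift, as a percentage of the reference inhibitor's shift, reaches about 5.3% (limit read from the data); inactive means the rest.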
Please reply with one of these outcomes: active, inactive

O=C(COC(=O)CCC(=O)c1cccs1)NCc1ccco1 :: inactive
Cc1cc(/C=C2\SC(=O)N(C)C2=O)c(C)n1-c1cccc(C(=O)O)c1 :: inactive

Exam item: Short answer needed: outcome of this test for COc1ccc(Cl)cc1C=CC=NNC(=O)c1ccncc1 ?
Marked response: inactive

Exam item: Likewise for Cc1ccc(NC(=O)COc2ccc(/C=N\NC(=O)c3cccnc3)cc2)cc1C ?
Marked response: inactive

Exam item: Also need O=C(COC(=O)c1ccccc1O)NCc1ccco1 , thanks.
Marked response: inactive

Exam item: And what about the compound COc1ccc(OCC(=O)NNC(=O)c2ccc(-c3ccccc3)cc2)cc1 ?
Marked response: inactive

Exam item: // query: CS(=O)(=O)C1=NN2C(=N)/C(=C\c3ccc(OCCOc4ccccc4)cc3)C(=O)N=C2S1
Marked response: active

Exam item: Field entry: Cc1ccn2c(=O)nc(SCC(=O)NCc3ccc4c(c3)OCO4)nc2c1
Marked response: inactive

Exam item: Please answer likewise for O=C(CCNC(=O)c1ccccc1)NN=Cc1ccc(Br)o1
Marked response: inactive

Exam item: Do the same for O=C(Nc1cccnc1)c1cc2cc(Br)ccc2oc1=O please
Marked response: inactive

Exam item: What do you have for O=C(CCC(=O)N/N=C/c1ccc(Br)o1)N/N=C/c1ccc(Br)o1 ?
Marked response: inactive
